Target: UniProt P21728
Sequence (P21728 whole entry): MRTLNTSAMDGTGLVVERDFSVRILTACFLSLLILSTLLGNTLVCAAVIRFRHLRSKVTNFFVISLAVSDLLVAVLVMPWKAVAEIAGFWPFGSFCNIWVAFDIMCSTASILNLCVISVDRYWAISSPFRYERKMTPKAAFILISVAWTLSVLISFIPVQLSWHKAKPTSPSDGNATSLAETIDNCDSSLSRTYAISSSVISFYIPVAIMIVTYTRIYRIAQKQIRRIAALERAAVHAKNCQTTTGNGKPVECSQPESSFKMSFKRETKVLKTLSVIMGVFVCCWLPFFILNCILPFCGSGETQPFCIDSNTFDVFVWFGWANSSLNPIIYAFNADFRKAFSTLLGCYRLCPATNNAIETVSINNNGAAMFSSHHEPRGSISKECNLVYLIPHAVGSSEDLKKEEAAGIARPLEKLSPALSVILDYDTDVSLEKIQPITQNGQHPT
Experiment: Binding affinity to dopamine D1 receptor
pKi: −log10 of the molar value.
Readout Name: pKi

INSERT INTO results (smiles_repr, data_value) VALUES
  ('O=c1[nH]c2[nH]c(-c3ccccc3)cc2c(=O)n1CCN1CCN(c2ccccc2Cl)CC1', 6.29);

P. O=c1[nH]c2[nH]c(-c3ccccc3Cl)cc2c(=O)n1CCN1CCN(c2ccccc2Cl)CC1
Q. COc1ccccc1-c1cc2c(=O)n(CCN3CCN(c4ccccc4Cl)CC3)c(=O)[nH]c2[nH]1
R. COc1ccc(-c2cc3c(=O)n(CCN4CCN(c5ccccc5Cl)CC4)c(=O)[nH]c3[nH]2)cc1
S. Cc1ccccc1-c1cc2c(=O)n(CCN3CCN(c4ccccc4Cl)CC3)c(=O)[nH]c2[nH]1
hey, can you rank those molecules up there by pKi? biggest number first please Labels, requested order.
R, P, S, Q

----------
Molecular target: Alpha-1D adrenergic receptor (Rattus norvegicus)
Assay: Antagonistic activity at ADRA1D in rat thoracic aorta
Assay type: functional, tissue-based
Readout Name: pKb

INSERT INTO results (smiles_repr, readout_name, data_value) VALUES
  ('O=c1[nH]c2[nH]c(-c3ccc(Cl)cc3)cc2c(=O)n1CCN1CCN(c2ccccc2Cl)CC1', 'pKb', 7.66),
  ('COc1ccc(-c2cc3c(=O)n(CCN4CCN(c5ccccc5Cl)CC4)c(=O)[nH]c3[nH]2)cc1', 'pKb', 7.69),
  ('Cc1ccc(-c2cc3[nH]c(=O)n(CCN4CCN(c5ccccc5Cl)CC4)c(=O)c3[nH]2)cc1', 'pKb', 6.44),
  ('Cc1ccc(-c2cc3c(=O)n(CCN4CCN(c5ccccc5Cl)CC4)c(=O)[nH]c3[nH]2)cc1', 'pKb', 7.78);

----------
Species: Rattus norvegicus
Assay: Selectivity for ADRA1D over ADRA1B
Readout Name: Ratio pKb

INSERT INTO measurements (smiles_repr, data_value) VALUES
  ('Cc1ccc(-c2cc3[nH]c(=O)n(CCN4CCN(c5ccccc5Cl)CC4)c(=O)c3[nH]2)cc1', 1);

1. Cc1ccc(-c2cc3c(=O)n(CCN4CCN(c5ccccc5Cl)CC4)c(=O)[nH]c3[nH]2)cc1
2. O=c1[nH]c2[nH]c(-c3ccc(Cl)cc3)cc2c(=O)n1CCN1CCN(c2ccccc2Cl)CC1
3. COc1ccc(-c2cc3c(=O)n(CCN4CCN(c5ccccc5Cl)CC4)c(=O)[nH]c3[nH]2)cc1
Form: Sort by [Ratio pKb] Order [ ascending ] Labels, requested order.
3, 1, 2
(3: 0.5, 1: 2, 2: 10)

----------
Molecular target: UniProt:P43140
Sequence (P43140 whole entry): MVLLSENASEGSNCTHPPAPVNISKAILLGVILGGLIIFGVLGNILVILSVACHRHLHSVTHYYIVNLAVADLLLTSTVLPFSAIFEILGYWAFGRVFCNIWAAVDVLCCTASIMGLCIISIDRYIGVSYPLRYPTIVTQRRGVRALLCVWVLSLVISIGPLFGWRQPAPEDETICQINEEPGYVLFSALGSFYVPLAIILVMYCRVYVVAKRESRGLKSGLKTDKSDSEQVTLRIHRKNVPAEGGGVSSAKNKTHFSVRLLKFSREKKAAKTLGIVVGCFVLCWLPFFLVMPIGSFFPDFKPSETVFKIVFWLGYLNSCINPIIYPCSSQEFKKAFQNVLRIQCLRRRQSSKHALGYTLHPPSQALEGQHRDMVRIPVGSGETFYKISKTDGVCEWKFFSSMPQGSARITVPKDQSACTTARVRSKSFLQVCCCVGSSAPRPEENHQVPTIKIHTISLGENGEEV
Assay: Antagonistic activity at ADRA1A in isolated rat prostatic vas deferens
Assay type: functional, tissue-based
Readout Name: pKb

INSERT INTO measurements (smiles_repr, system, readout_name, data_value) VALUES
  ('Cc1ccc(-c2cc3c(=O)n(CCN4CCN(c5ccccc5Cl)CC4)c(=O)[nH]c3[nH]2)cc1', 'UniProt:P43140', 'pKb', 7.25),
  ('Cc1ccc(-c2cc3[nH]c(=O)n(CCN4CCN(c5ccccc5Cl)CC4)c(=O)c3[nH]2)cc1', 'UniProt:P43140', 'pKb', 6.72),
  ('COc1ccc(-c2cc3c(=O)n(CCN4CCN(c5ccccc5Cl)CC4)c(=O)[nH]c3[nH]2)cc1', 'UniProt:P43140', 'pKb', 7.48),
  ('O=c1[nH]c2[nH]c(-c3ccc(Cl)cc3)cc2c(=O)n1CCN1CCN(c2ccccc2Cl)CC1', 'UniProt:P43140', 'pKb', 6.41);

----------
Target: Alpha-1B adrenergic receptor (Rattus norvegicus) (UniProt P15823)
Sequence (P15823 whole entry): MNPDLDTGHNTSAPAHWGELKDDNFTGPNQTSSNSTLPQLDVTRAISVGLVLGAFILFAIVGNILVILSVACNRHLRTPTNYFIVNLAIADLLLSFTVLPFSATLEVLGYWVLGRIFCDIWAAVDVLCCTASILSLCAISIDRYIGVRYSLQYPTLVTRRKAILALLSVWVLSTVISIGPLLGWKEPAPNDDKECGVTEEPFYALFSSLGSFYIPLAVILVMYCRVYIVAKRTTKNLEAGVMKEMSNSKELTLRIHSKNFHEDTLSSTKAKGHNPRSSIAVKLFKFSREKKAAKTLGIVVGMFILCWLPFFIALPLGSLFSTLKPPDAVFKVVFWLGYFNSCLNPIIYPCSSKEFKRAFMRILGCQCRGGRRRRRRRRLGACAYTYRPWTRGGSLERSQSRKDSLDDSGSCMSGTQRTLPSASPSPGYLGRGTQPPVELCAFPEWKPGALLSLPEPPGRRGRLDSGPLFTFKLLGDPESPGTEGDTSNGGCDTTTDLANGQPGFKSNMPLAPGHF
Test: Antagonistic activity at ADRA1B in rat spleen
Format: functional, tissue-based
Readout Name: pKb

INSERT INTO results (smiles_repr, system, data_value) VALUES
  ('Cc1ccc(-c2cc3c(=O)n(CCN4CCN(c5ccccc5Cl)CC4)c(=O)[nH]c3[nH]2)cc1', 'Alpha-1B adrenergic receptor (Rattus norvegicus) (UniProt P15823)', 7.5),
  ('Cc1ccc(-c2cc3[nH]c(=O)n(CCN4CCN(c5ccccc5Cl)CC4)c(=O)c3[nH]2)cc1', 'Alpha-1B adrenergic receptor (Rattus norvegicus) (UniProt P15823)', 6.37),
  ('O=c1[nH]c2[nH]c(-c3ccc(Cl)cc3)cc2c(=O)n1CCN1CCN(c2ccccc2Cl)CC1', 'Alpha-1B adrenergic receptor (Rattus norvegicus) (UniProt P15823)', 6.64),
  ('COc1ccc(-c2cc3c(=O)n(CCN4CCN(c5ccccc5Cl)CC4)c(=O)[nH]c3[nH]2)cc1', 'Alpha-1B adrenergic receptor (Rattus norvegicus) (UniProt P15823)', 8.03);

----------
Molecular target: Adrenergic receptor alpha-1 (Homo sapiens, UniProt P35348+P25100+P35368)
Test: Binding affinity to adrenergic alpha-1 receptor
Type: protein assay
Readout Name: Ki (nM)

A selection of reference data follows.
INSERT INTO assay_data (smiles_repr, measure_unit, data_value) VALUES
  ('COc1ccccc1-c1cc2c(=O)n(CCN3CCN(c4ccccc4Cl)CC3)c(=O)[nH]c2[nH]1', 'nM', 3.32),
  ('COc1ccccc1N1CCN(CCn2c(=O)[nH]c3[nH]c(-c4ccccc4C)cc3c2=O)CC1', 'nM', 1.19),
  ('COc1ccccc1N1CCN(CCn2c(=O)[nH]c3[nH]c(-c4ccccc4)cc3c2=O)CC1', 'nM', 1.99),
  ('COc1ccccc1N1CCN(CCn2c(=O)[nH]c3[nH]c(-c4ccc(Cl)cc4)cc3c2=O)CC1', 'nM', 4.08),
  ('O=c1[nH]c2[nH]c(-c3ccccc3)cc2c(=O)n1CCN1CCN(c2ccccc2Cl)CC1', 'nM', 4.71),
  ('O=c1[nH]c2[nH]c(-c3ccc(Cl)cc3)cc2c(=O)n1CCN1CCN(c2ccccc2Cl)CC1', 'nM', 2.64),
  ('COc1ccc(-c2cc3c(=O)n(CCN4CCN(c5ccccc5Cl)CC4)c(=O)[nH]c3[nH]2)cc1', 'nM', 16.4);

P. COc1ccccc1-c1cc2c(=O)n(CCN3CCN(c4ccccc4OC)CC3)c(=O)[nH]c2[nH]1
Q. COc1ccccc1N1CCN(CCn2c(=O)[nH]c3[nH]c(-c4ccc(C)cc4)cc3c2=O)CC1
Of P and Q , which carries the smaller reported Ki figure? Refer to your chosen item by its label in the answer.
P

----------
Species: Homo sapiens
Assay: Selectivity for dopamine D1 over adrenergic alpha-1 receptor
Readout Name: Ratio Ki

A selection of reference data follows.
INSERT INTO assay_data (smiles_repr, readout_name, data_value) VALUES
  ('Cc1ccc(-c2cc3[nH]c(=O)n(CCN4CCN(c5ccccc5Cl)CC4)c(=O)c3[nH]2)cc1', 'Ratio Ki', '> 500'),
  ('COc1ccccc1-c1cc2c(=O)n(CCN3CCN(c4ccccc4Cl)CC3)c(=O)[nH]c2[nH]1', 'Ratio Ki', '> 2500');

With those in mind, consider the next compound.
Ratio Ki lookup needed for O=c1[nH]c2[nH]c(-c3ccc(Cl)cc3)cc2c(=O)n1CCN1CCN(c2ccccc2Cl)CC1 , thanks.
206

----------
Target: Alpha adrenergic receptor 1A and 1D (Rattus norvegicus) (UniProt P23944+P43140)
Sequence (P23944 whole entry): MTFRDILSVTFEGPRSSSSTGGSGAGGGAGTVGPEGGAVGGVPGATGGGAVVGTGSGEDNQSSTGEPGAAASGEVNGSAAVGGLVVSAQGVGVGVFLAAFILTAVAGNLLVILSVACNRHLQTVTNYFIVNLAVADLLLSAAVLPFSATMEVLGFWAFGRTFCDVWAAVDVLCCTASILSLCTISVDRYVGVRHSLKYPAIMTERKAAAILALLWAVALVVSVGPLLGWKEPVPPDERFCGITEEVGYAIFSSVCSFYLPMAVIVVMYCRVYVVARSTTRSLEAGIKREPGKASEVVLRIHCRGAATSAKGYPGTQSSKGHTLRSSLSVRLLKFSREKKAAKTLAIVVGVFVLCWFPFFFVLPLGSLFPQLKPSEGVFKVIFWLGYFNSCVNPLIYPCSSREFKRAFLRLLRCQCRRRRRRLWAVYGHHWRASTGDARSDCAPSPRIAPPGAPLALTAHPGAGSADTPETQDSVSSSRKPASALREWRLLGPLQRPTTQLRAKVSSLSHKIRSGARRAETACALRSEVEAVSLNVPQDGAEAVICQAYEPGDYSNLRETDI
Experiment: Selectivity for ADRA1D over ADRA1A
Format: protein assay
Readout Name: Ratio pKb

P. COc1ccc(-c2cc3c(=O)n(CCN4CCN(c5ccccc5Cl)CC4)c(=O)[nH]c3[nH]2)cc1
Q. O=c1[nH]c2[nH]c(-c3ccc(Cl)cc3)cc2c(=O)n1CCN1CCN(c2ccccc2Cl)CC1
R. Cc1ccc(-c2cc3c(=O)n(CCN4CCN(c5ccccc5Cl)CC4)c(=O)[nH]c3[nH]2)cc1
Sort the entries above numerically by Ratio pKb, high end first. Labels, requested order.
Q, R, P
(Q: 18, R: 3, P: 2)

----------
Organism: Homo sapiens
Assay: Selectivity for dopamine D1 over adrenergic alpha-1 receptor
Readout Name: Ratio Ki

A selection of reference data follows.
INSERT INTO measurements (smiles_repr, data_value) VALUES
  ('O=c1[nH]c2[nH]c(-c3ccccc3)cc2c(=O)n1CCN1CCN(c2ccccc2Cl)CC1', 110),
  ('Cc1ccc(-c2cc3c(=O)n(CCN4CCN(c5ccccc5Cl)CC4)c(=O)[nH]c3[nH]2)cc1', 33),
  ('COc1ccc(-c2cc3c(=O)n(CCN4CCN(c5ccccc5Cl)CC4)c(=O)[nH]c3[nH]2)cc1', 17);

1. Cc1ccccc1-c1cc2c(=O)n(CCN3CCN(c4ccccc4Cl)CC3)c(=O)[nH]c2[nH]1
2. O=c1[nH]c2[nH]c(-c3ccccc3Cl)cc2c(=O)n1CCN1CCN(c2ccccc2Cl)CC1
Of 1 and 2 , which carries the smaller reported Ratio Ki figure? Refer to your chosen item by its label in the answer.
2
(2: 90, 1: 371)
